The reader will find reported Dmax values listed item by item below.
biological target: BRAF V600E (Homo sapiens, UniProt P15056, V600E); construct: endogenous C-terminal HiBiT fusion tag on BRAF V600E allele; endogenous in cells; host or cells: A375 clone 1F10 (CRISPR-Cas9 knock-in of the HiBiT tag; parental A375 from ATCC); test: BRAF HiBiT degradation assay, C-terminal HiBiT-tagged BRAF V600E A375 cells (clone 1F10), Nano-Glo HiBiT Lytic assay; format: cell-based; details: A-375; A375 (BRAF V600E); percentage protein degraded at maximal compound effect relative to DMSO
Sequence (P15056 whole entry V600E, the tested form may be a part): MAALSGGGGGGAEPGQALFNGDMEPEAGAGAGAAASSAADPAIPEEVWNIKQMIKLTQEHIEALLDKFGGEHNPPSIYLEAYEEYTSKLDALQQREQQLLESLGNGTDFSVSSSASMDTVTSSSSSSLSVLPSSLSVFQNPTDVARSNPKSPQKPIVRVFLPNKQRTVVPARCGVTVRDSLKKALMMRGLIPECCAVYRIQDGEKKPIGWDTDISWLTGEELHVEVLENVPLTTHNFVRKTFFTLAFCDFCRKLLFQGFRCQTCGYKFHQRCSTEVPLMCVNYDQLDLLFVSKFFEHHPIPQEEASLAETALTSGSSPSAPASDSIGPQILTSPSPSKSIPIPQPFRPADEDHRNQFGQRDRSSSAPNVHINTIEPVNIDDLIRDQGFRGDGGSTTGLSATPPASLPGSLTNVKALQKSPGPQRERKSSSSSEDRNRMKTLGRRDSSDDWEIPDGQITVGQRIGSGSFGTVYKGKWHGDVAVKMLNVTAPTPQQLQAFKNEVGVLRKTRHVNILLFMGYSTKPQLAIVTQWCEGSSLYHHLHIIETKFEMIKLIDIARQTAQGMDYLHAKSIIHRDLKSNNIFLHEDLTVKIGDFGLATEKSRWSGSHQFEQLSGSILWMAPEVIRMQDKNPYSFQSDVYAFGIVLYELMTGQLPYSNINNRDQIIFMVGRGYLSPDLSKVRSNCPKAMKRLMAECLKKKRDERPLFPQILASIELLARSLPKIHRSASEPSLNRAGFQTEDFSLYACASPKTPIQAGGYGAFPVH

CCCS(=O)(=O)Nc1cccc(-c2nc(C3CCN(C4CN(C(=O)CC5CCN(c6ccc(C7CCC(=O)NC7=O)cc6)CC5)C4)CC3)sc2-c2ccnc(N)n2)c1F (racemic); > 70%
CCCS(=O)(=O)Nc1cccc(-c2nc(C(C)(C)C)sc2-c2ccnc(NC[C@H]3CCN(CC4CCN(c5ccc(C(=O)N[C@H]6CCC(=O)NC6=O)nc5)CC4)C3)n2)c1F; 30 to 70%

Read the next record carefully.
Lookup: So what's the measured Dmax for this one? CCCS(=O)(=O)Nc1cccc(-c2nc(C3CCN(C4CN(C(=O)CC5(O)CCN(c6ccc(NC7CCC(=O)NC7=O)cc6F)CC5)C4)CC3)sc2-c2ccnc(N)n2)c1F (racemic)
Found: 30 to 70%

====

The reader will find reported DC50 values listed item by item below.
biological target: BRAF D594G (Homo sapiens, UniProt P15056, D594G); construct: Horizon Discovery (HCT-116 BRAF−/− cells); host or cells: HCT-116 BRAF−/− cells, clone 63, lentiviral transduction; assay: BRAF HiBiT degradation assay, C-terminal HiBiT-tagged BRAF D594G overexpressed in HCT-116 BRAF−/− cells (clone 63), Nano-Glo HiBiT Lytic assay; type: cell-based; conditions: BRAF D594G (Class 3), HCT-116 BRAF−/− cells; DC50 at 50% degradation
Sequence (P15056 whole entry D594G): as the sequence (P15056 whole entry V600E, the tested form may be a part) above, with D594G, E600V counted along it

O=C1CC[C@H](c2ccc(N3CCC(CN4CCN(c5ccc(-n6cc(-c7cc(F)cc(NS(=O)(=O)N8CC[C@@H](F)C8)c7F)c(-c7ccncc7)n6)nc5)CC4)CC3)cc2)C(=O)N1; < 10 nM
O=C1CCN(c2ccc(N3CCC(CN4CCN(c5ccc(-n6cc(-c7cc(Cl)cc(NS(=O)(=O)N8CC[C@@H](F)C8)c7F)c(-c7ccncc7)n6)cc5F)CC4)CC3)cc2)C(=O)N1; < 10 nM
CCCS(=O)(=O)Nc1cccc(-c2nc(C3CCC4(CC3)CCN(C[C@H]3CC[C@H](Oc5ccc(C6CCC(=O)NC6=O)cn5)CC3)CC4)sc2-c2ccnc(N)n2)c1F (mixture of isomers); > 500 nM
O=C1CCN(c2ccc(N3CCC(CN4CCN(c5ccc(-n6cc(-c7cc(Cl)cc(NS(=O)(=O)N8CC[C@@H](F)C8)c7F)c(-c7ccncc7)n6)nc5)CC4)CC3)cc2)C(=O)N1; < 10 nM

Lookup: Lab note: need DC50 for CCCS(=O)(=O)Nc1cccc(-c2cn(-c3ccc(N4CCC(CN5CCN(c6ccc(C7CCC(=O)NC7=O)cc6)CC5)CC4)cc3)nc2-c2ccncc2)c1F (racemic) on BRAF D594G (Homo sapiens, UniProt P15056, D594G), anyone have it?
Found: < 10 nM
